All figures here come from ChEMBL document CHEMBL5604063.

- study target: Genome polyprotein (dengue virus type 2)
- Type: functional, Thailand/16681/1984
Give IC50 for every item shown.

{"structure smiles": "C[C@H]1C[C@H](c2cccc(CN)c2)[C@@H](c2cc(Cl)cc(NC(=O)OCc3ccccc3)c2)C1", "study target": "Genome polyprotein (dengue virus type 2)", "IC50": "77.6 µM"}

List IC50 for every entry below, keeping the order given.
1. O=C(Nc1cc(Cl)cc(C(=O)Nc2ccc3c(c2)C(=O)NC3)c1)OCc1ccccc1
2. C=CC[C@H]1NCc2cc(N[C@H](C(=O)NC(C)C)c3cccc4[nH]ncc34)ccc21

Return:
["> 100 µM", "> 100 µM"]

---

Give pIC50 for every item shown.
- study target: Genome polyprotein (dengue virus type 2)
- Type: functional, Thailand/16681/1984
pIC50: −log10 of the molar value.

Recorded pIC50, per entry:
{"structure smiles": "O=C(Nc1ccc2c(c1)CNC2)N1CCC[C@H]1c1cc(C(F)(F)F)no1", "observed value": "< 4.00"}
{"structure smiles": "O=C(NCC1CC1)[C@H]1CCCC[C@H]1NS(=O)(=O)c1ccc(Oc2ccccc2Cl)cc1", "observed value": "< 4.00"}
{"structure smiles": "CSc1cc(F)c(C(=O)Nc2cccc(CN)c2)cc1NC(=O)OCc1ccccc1", "observed value": 4.07}
{"structure smiles": "COC(=O)c1cc(NC(=O)OCc2ccccc2)cc(C(=O)Nc2cccc(CN)c2)c1", "observed value": "< 4.00"}

Lookup result for "N#Cc1ccc(CN)cc1NC(=O)c1cc(Cl)cc(NC(=O)OCc2ccccc2)c1" ; measured pIC50: < 4.00

---

Give pIC50 for every item shown.
- study target: Genome polyprotein (dengue virus type 2)
- Assay type: functional, Thailand/16681/1984
pIC50: −log10 of the molar value.

Recorded pIC50, per entry:
{"structure smiles": "O=C1Cc2c(cccc2C(=O)N[C@H]2COc3cc(Br)cnc32)N1", "observed value": "< 4.00"}
{"structure smiles": "O=C1Cc2c(cccc2C(=O)Nc2cccc(Cc3nn[nH]n3)c2)N1", "observed value": "< 4.00"}
{"structure smiles": "COCCNC(=O)[C@H](Nc1cccc([C@H]2CCOC2)c1)c1cc(F)cc2[nH]ccc12", "observed value": "< 4.00"}
{"structure smiles": "NCc1cc(Br)cc(NC(=O)c2cc(Cl)cc(NC(=O)OCc3ccccc3)c2)c1", "observed value": "< 4.00"}
{"structure smiles": "CCc1cc(NC(=O)OCc2ccccc2)cc(C(=O)Nc2cccc(CN)c2)c1", "observed value": "< 4.00"}
{"structure smiles": "O=C(Nc1ccc2c(c1)CNC2)c1cc(F)cc(-c2ccnn2CC2CC2)c1", "observed value": "< 4.00"}
{"structure smiles": "COCCCN1Cc2ccc(NC(=O)c3cc(Cl)cc4[nH]ncc34)cc2C1", "observed value": "< 4.00"}
{"structure smiles": "O=C(Nc1cc(Cl)cc(C(=O)NCCCc2nnn[nH]2)c1)OCc1ccccc1", "observed value": "< 4.00"}

List pIC50 for every entry below, keeping the order given.
1. NCCCc1cccc(NC(=O)c2cc(Cl)cc(NC(=O)OCc3ccccc3)c2)n1
2. Cn1nnc(S(=O)(=O)N2CCC([C@H](NC(=O)OCc3ccccc3)C(=O)Nc3cccc(CN)c3)CC2)n1
3. C=CC[C@H]1NCc2cc(NC(=O)c3cc(F)cc4c3CC(=O)N4)ccc21
4. NS(=O)(=O)c1cccc(-c2ccc(S(=O)(=O)Nc3ccc(Cl)cc3C(=O)O)cc2)c1
5. FC(F)(F)c1nc(CNCc2cocn2)cs1
6. O=C(O)c1ccsc1NS(=O)(=O)c1ccc(Oc2ccccc2Cl)cc1
7. O=C(Nc1ccc2c(c1)CNC2)c1cc(F)cc(C2=CCOCC2)c1
8. NCc1cccc(NC(=O)[C@H](NC(=O)OCc2ccccc2)C2CCN(C(=O)Cn3ccnc3)CC2)c1

Return:
1. 4.21
2. < 4.00
3. 4.50
4. 4.51
5. < 4.00
6. 4.70
7. < 4.30
8. < 4.00

---

- study target: Genome polyprotein (dengue virus type 2, UniProt P29990)
- Sequence (P29990 1346-1475 limits assumed): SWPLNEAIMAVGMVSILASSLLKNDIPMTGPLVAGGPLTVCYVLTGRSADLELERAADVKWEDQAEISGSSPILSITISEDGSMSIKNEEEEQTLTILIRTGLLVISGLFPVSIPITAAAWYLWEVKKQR
- Sequence (P29990 1476-2093 limits assumed): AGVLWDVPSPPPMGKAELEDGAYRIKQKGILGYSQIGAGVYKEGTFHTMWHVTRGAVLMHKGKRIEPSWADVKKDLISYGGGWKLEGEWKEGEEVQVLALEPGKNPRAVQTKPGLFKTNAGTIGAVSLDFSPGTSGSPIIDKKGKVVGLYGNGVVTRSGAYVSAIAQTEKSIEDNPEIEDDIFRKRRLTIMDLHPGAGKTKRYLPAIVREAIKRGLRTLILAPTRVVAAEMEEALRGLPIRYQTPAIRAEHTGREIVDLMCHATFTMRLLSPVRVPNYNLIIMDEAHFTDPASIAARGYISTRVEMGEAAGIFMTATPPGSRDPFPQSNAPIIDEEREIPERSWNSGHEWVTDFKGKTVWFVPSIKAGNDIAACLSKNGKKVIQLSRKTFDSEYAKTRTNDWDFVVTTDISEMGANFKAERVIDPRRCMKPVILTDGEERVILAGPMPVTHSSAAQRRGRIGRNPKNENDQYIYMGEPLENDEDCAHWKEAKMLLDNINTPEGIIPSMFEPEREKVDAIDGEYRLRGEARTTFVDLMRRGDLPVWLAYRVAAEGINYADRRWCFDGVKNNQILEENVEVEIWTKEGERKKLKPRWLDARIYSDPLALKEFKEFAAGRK
- Type: functional, Thailand/16681/1984
value kind: IC50

Recorded IC50, per entry:
{"structure smiles": "N#Cc1csc2cc(C(=O)Nc3ccc4c(c3)CNC4)ccc12", "study target": "Genome polyprotein (dengue virus type 2, UniProt P29990)", "IC50": "> 100 µM"}
{"structure smiles": "O=C(Nc1cc2c(cn1)CNC2)c1cc(F)cc2[nH]ncc12", "study target": "Genome polyprotein (dengue virus type 2, UniProt P29990)", "IC50": "> 100 µM"}
{"structure smiles": "Cc1ccc(NC(=O)c2cc(Cl)ccc2Cl)c(C(=O)Nc2cccc(CN)c2)c1", "study target": "Genome polyprotein (dengue virus type 2, UniProt P29990)", "IC50": "> 100 µM"}

List IC50 for every entry below, keeping the order given.
1. CC(C)Oc1cc(CN)ccc1NS(=O)(=O)c1ccc(Oc2ccccc2Cl)cc1
2. CCc1cc(C(=O)Nc2cccc(CN)c2)sc1-c1ccc(Cl)cc1
3. COc1cc(C(=O)Nc2cccc(CN)c2)cc2cn(C)nc12

Return:
1. > 100 µM
2. > 100 µM
3. > 100 µM

---

- study target: Genome polyprotein (dengue virus type 2)
- Assay type: functional, Thailand/16681/1984
Give IC50 for every item shown.

{"structure smiles": "CCc1cc(C(=O)Nc2cccc(-c3nnn[nH]3)c2)ccc1Cl", "study target": "Genome polyprotein (dengue virus type 2)", "observed value": "> 99.5 µM"}
{"structure smiles": "COCC(=O)N1CCC([C@@H](NC(=O)OCc2ccccc2)C(=O)Nc2cccc(CN)c2)CC1", "study target": "Genome polyprotein (dengue virus type 2)", "observed value": "> 99.5 µM"}
{"structure smiles": "Nc1n[nH]c2cc(C(=O)Nc3ccc4c(c3)CNC4)ccc12", "study target": "Genome polyprotein (dengue virus type 2)", "observed value": "> 99.5 µM"}

List IC50 for every entry below, keeping the order given.
1. O=C(Nc1cc(Br)c2c(c1)CNC2)c1cc(F)cc2[nH]ncc12
2. CNC(=O)c1ccnc(NC(=O)c2cc(C3CC3)n(C)c2C)c1

Return:
1. 40.4 µM
2. > 99.5 µM

---

- study target: Genome polyprotein (dengue virus type 2)
- Format: functional, Thailand/16681/1984
pIC50: −log10 of the molar value.
Give pIC50 for every item shown.

Recorded pIC50, per entry:
{"structure smiles": "CCOc1cccc(-c2ccc(S(=O)(=O)Nc3ccc(Cl)cc3C(=O)O)cc2C)c1", "observed value": 5.13}
{"structure smiles": "N[C@H]1CCc2ncc(NS(=O)(=O)c3ccc(Oc4ccccc4Cl)cc3)cc2C1", "observed value": "< 4.00"}
{"structure smiles": "O=C(Nc1ccc2c(c1)CNC2)c1ccc2ccncc2c1", "observed value": "< 4.00"}
{"structure smiles": "Cc1onc(C(=O)Nc2cccc(CN)c2)c1CN1CCCC1", "observed value": "< 4.00"}
{"structure smiles": "N#Cc1cc(CN)cc([C@H]2C[C@@H]2c2cc(Cl)cc(NC(=O)OCc3ccccc3)c2)c1", "observed value": "< 4.00"}

List pIC50 for every entry below, keeping the order given.
1. NCc1cccc(NC(=O)[C@@H](NC(=O)OCc2ccccc2)c2ccc(OCc3cnccn3)cc2)c1
2. Cc1c(C(=O)Nc2ccnc(O[C@H]3CCOC3)c2)cc(C2CC2)n1C
3. O=C(Nc1cc(Cl)cc(C(=O)NC2([C@H]3CCNC3)CC2)c1)OCc1ccccc1
4. Cc1cc(C)c([C@@H](CC(=O)Nc2cccc(CN)c2)NC(=O)OCc2ccccc2)cc1C
5. NCc1cccc(NC(=O)c2cc(Cl)ccc2OCC(F)(F)F)c1

Return:
< 4.00
< 4.00
< 4.00
4.93
< 4.00

---

- study target: Genome polyprotein (dengue virus type 2, UniProt P29990)
- Format: functional, Thailand/16681/1984
pIC50: −log10 of the molar value.
value kind: pIC50

Recorded pIC50, per entry:
{"structure smiles": "NCCc1nsc(NC(=O)c2cc(Cl)cc(NC(=O)OCc3ccccc3)c2)n1", "pIC50": "< 4.00"}
{"structure smiles": "Cc1ccc(-c2cc(CN)cc([C@@H]3C[C@H]3c3cc(Cl)cc(NC(=O)OCc4ccccc4)c3)c2)cn1", "pIC50": 4.50}
{"structure smiles": "CCOC(=O)N1CCC[C@H]1c1cccc(-c2ccc3[nH]c(C(=O)O)cc3c2)c1", "pIC50": "< 4.00"}
{"structure smiles": "CN1C(=O)CC[C@H]1c1nc2c(C(=O)Nc3ccc4c(c3)CNC4)cc(F)cc2[nH]1", "pIC50": "< 4.00"}
{"structure smiles": "NCc1cccc(NC(=O)[C@H](NC(=O)OCc2ccccc2)C(C2CCC2)C2CCC2)c1", "pIC50": "< 4.00"}
{"structure smiles": "c1cncc(CC2CN(Cc3n[nH]c4ccccc34)C2)c1", "pIC50": "< 4.00"}
{"structure smiles": "C[C@H]1NCCc2c(-c3ccc4[nH]c(C(=O)O)cc4c3)cc(F)cc21", "pIC50": "< 4.00"}
{"structure smiles": "CN(C)Cc1cc(NC(=O)c2cc(Cl)cc(NC(=O)OCc3ccccc3)c2)sn1", "pIC50": "< 4.00"}

List pIC50 for every entry below, keeping the order given.
1. Cn1cc(C(=O)O)c(NS(=O)(=O)c2ccc(Oc3ccccc3Cl)cc2)n1
2. COc1ccc(NS(=O)(=O)c2ccc(Cl)cc2C(=O)O)cc1-n1nnnc1C
3. O=C(Nc1ccc2c(c1)B(O)OC2)c1cccc(OCc2c(Cl)cccc2Cl)c1
4. CNC(=O)[C@]1(Nc2ccc3c(c2)CNC3)CCc2ccccc21
5. CCc1cc(C(=O)Nc2cccc(-c3nnn[nH]3)c2)nn1-c1ccccc1
6. Cc1c(F)cc(C(=O)Nc2cccc(CN)c2)c(F)c1NC(=O)OCc1ccccc1
7. C=CC[C@H](Nc1cccc(-c2nn[nH]n2)c1)c1cc(Cl)cc2[nH]ncc12
8. O=C(Nc1ccc2c(c1)CNC2)N1CCC[C@H]1Cc1cc2ccccc2o1

Return:
1: < 4.00; 2: < 4.00; 3: < 4.00; 4: < 4.00; 5: < 4.00; 6: 4.16; 7: 4.04; 8: < 4.00

List pIC50 for every entry below, keeping the order given.
1. NCc1cccc(NC(=O)[C@H](NS(=O)(=O)C2CCCCC2)c2ccc(OCc3ccccc3)cc2)c1
2. CC[C@H](Cc1nn[nH]n1)c1ccc(N[C@H](C(=O)NC)c2cc(Cl)cc(NC(=O)OCc3ccccc3)c2)cc1
3. c1ccc(COc2ccc3c(CN4CCC(c5cscn5)CC4)c[nH]c3c2)cc1

Return:
["< 4.00", 4.53, "< 4.00"]

Lookup result for "c1cnc2[nH]cc(C3CCN(Cc4c[nH]c5cnccc45)CC3)c2c1" ; measured pIC50: < 4.00
